// data source = PubChem BioAssay (NCI)

Hi there, I'd appreciate the recorded GI50 for every entry that follows.
System: MCF7 breast
Experiment: NCI tumour cell line growth inhibition, 48 h

Previously resolved entries follow.
{"COMPOUND": "BrCc1cccc(C[P+](c2ccccc2)(c2ccccc2)c2ccccc2)c1", "OBSERVED_MEASUREMENT": "13400 nM"}
{"COMPOUND": "Cc1cc(N(CCCNc2ccnc3cc(Cl)ccc23)Cc2ccc3c(c2)OCO3)nc(N2CCOCC2)n1", "OBSERVED_MEASUREMENT": "286 nM"}
{"COMPOUND": "CCOC(=O)c1c(-c2ccc(OC)cc2)c(C#N)c2c(C#N)c(N)nn2c1N", "OBSERVED_MEASUREMENT": "3310 nM"}

Answer for every listed entry: what is its GI50? The entries follow.
1. CCOC(=O)/C=C/c1ccc(C#Cc2ccccc2)cc1
2. C#Cc1nc(Nc2cc(C)[nH]n2)c2ccccc2n1
3. NCCCn1c2c(c3ccc([N+](=O)[O-])cc3c1=O)C(=O)c1ccccc1-2
4. COc1ccc(C2=C(c3ccc(OC)cc3)C(=O)N3CCCC3C2)cc1 (configuration not stated)
5. Cc1ccc(Nc2oc(-c3ccccc3)nc2[P+](c2ccccc2)(c2ccccc2)c2ccccc2)cc1

1: > 100000 nM; 2: 197 nM; 3: 12.2 nM; 4: 12800 nM; 5: 433 nM

Answer for every listed entry: what is its GI50? The entries follow.
1. CN(C)c1ccc(N=Nc2ccccn2)c(O)c1
2. Nc1ccn(C2OC(CO)C(O)C2O)c(=O)n1 (configuration not stated)
3. Cn1c(=O)c(Oc2ccc(F)cc2)cc2cnc(NC3CCOCC3)nc21
4. CS(=O)(=O)Nc1cc(-c2ccc3ncnc(Nc4c(Cl)ccc5c4OCO5)c3c2)cnc1Cl

1: 271 nM; 2: 40.8 nM; 3: > 25000 nM; 4: 52.4 nM
